meta.source: patent US20230165276A1

In this section, each of the compounds is paired with its reported EV in Fish meal.
# experiment.notes: Oxipres antioxidant efficacy value (EV) in fish meal
# condition.info: 70° C., 5 bar oxygen, 130 hours, equimolar to BHT, EV relative to BHT (EV=1)
measurement.label: EV in Fish meal

CC1=CC(C)(C)Oc2c(C)c(C)c(O)c(C)c21 : 0.89
CCOc1ccc2c(c1)C(C)=CC(C)(C)O2 : 0.77
O=c1ccc2cc(O)ccc2o1 [Compound of formula (6), 6-hydroxycoumarin] : 0.75
CC1=CC(C)(C)Oc2ccc(O)cc21 : 0.94
Oc1ccc2c(c1)C=CCO2 : 0.72
Cc1c(C)c2c(c(C)c1O)CC[C@@](C)(CCC[C@H](C)CCC[C@H](C)CCCC(C)C)O2 [alpha-tocopherol, reference compound] : 0.88
Cc1cc(C(C)(C)C)c(O)c(C(C)(C)C)c1 [BHT, 3,5-di-tert-butyl-4-hydroxy-toluene, reference compound] : 1
Cc1c(C)c2c(c(C)c1O)C=CC(C)(C)O2 : 1.10
